Hey, just so you know, these numbers are from patent US9850283B2.

system-name: Hu PD-L1/PD-1 (Homo sapiens, UniProt Q9NZQ7)
Sequence (Q9NZQ7 19-290): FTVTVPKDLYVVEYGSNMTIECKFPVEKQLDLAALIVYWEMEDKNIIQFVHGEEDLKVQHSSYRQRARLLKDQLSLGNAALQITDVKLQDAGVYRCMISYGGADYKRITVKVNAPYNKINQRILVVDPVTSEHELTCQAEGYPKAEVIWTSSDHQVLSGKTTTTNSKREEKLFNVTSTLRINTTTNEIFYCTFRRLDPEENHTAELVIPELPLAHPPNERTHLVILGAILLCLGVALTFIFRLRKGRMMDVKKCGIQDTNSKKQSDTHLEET
protocol-text: Cell binding assay Hu PD-L1/PD-1 (Tables 11-13, cell line not given)
Assay type: cell-based
pIC50: −log10 of the molar value. Positions of bridges follow the written chain, without caps; N, C: chain ends. Non-standard residues stand in square brackets, D forms with d. Residues, ends and D or L forms follow the SMILES beside them. NMeNle = CCCC[C@H](NC)C(=O)O; dNle = CCCC[C@@H](N)C(=O)O; NMeA = CN[C@@H](C)C(=O)O; Sar = CNCC(=O)O
metric-name: pIC50

Kindly note the recorded pIC50 for CCCC[C@H]1NC(=O)[C@H](Cc2c[nH]c3ccccc23)NC(=O)[C@H](CO)NC(=O)[C@H](Cc2c[nH]c3ccccc23)NC(=O)CN(C)C(=O)[C@H](CC(C)C)NC(=O)[C@H](Cc2cnc[nH]2)NC(=O)[C@@H]2CCCN2C(=O)[C@H](CC(N)=O)NC(=O)[C@H](C)N(C)C(=O)[C@H](Cc2ccccc2)NC(=O)CSC[C@@H](C(=O)NCC(N)=O)NC(=O)[C@H](CCCNC(=N)N)NC(=O)[C@H](CCCC)N(C)C1=O [Compound No. 70] ({CH2CO}-F[NMeA]NPHL[Sar]WSW[dNle][NMeNle]RCG-NH2; thioether N-14) , which is < 5.00

---

system-name: LK35.2-hPD-L1 cells / PE-labeled PD-1-Ig (Homo sapiens)
Construct: expressed in transfected cells; host or cells: LK35.2 mouse B cell line
Sequence (Q9NZQ7 19-290): as above
protocol-text: LK35.2-hPD-L1 cell binding high-content screening assay
Format: cell-based
recorded-conditions: cluster symbol; cell line of CBA not given (LK35.2-hPD-L1 or 293T-hPD-L1); read-out: CBA IC50 cluster
pIC50: −log10 of the molar value. Positions of bridges follow the written chain, without caps; N, C: chain ends. Non-standard residues stand in square brackets, D forms with d. Residues, ends and D or L forms follow the SMILES beside them. Phe(3-Me) = Cc1cccc(C[C@H](N)C(=O)O)c1; Bta = N[C@@H](Cc1csc2ccccc12)C(=O)O; Hyp = O=C(O)[C@@H]1C[C@@H](O)CN1; NMeNle = CCCC[C@H](NC)C(=O)O; Pip = O=C(O)[C@@H]1CCCCN1; NMeA = CN[C@@H](C)C(=O)O; Dab = NCC[C@H](N)C(=O)O; Dap = NC[C@H](N)C(=O)O; Sar = CNCC(=O)O
metric-name: pIC50

Examples with answers:
CCCC[C@H]1C(=O)N(C)[C@@H](CCCC)C(=O)N[C@@H](CCCNC(=N)N)C(=O)N[C@H](C(=O)NCC(N)=O)CSCC(=O)N[C@@H](Cc2ccccc2)C(=O)N(C)[C@@H](C)C(=O)N[C@@H](CC(N)=O)C(=O)N2CCC[C@H]2C(=O)N[C@@H](Cc2cnc[nH]2)C(=O)N[C@@H](CC(C)C)C(=O)N(C)CC(=O)N[C@@H](Cc2cccc(C)c2)C(=O)N[C@@H](CO)C(=O)N[C@@H](Cc2c[nH]c3ccccc23)C(=O)N1C [Example 1086] ({CH2CO}-F[NMeA]NPHL[Sar][Phe(3-Me)]SW[NMeNle][NMeNle]RCG-NH2; thioether N-14): < 7.13
CCCC[C@H]1C(=O)N(C)[C@@H](CCCC)C(=O)N[C@@H](CN)C(=O)N[C@H](C(=O)NCC(N)=O)CSCC(=O)N[C@@H](Cc2ccc(O)cc2)C(=O)N2CCC[C@H]2C(=O)N[C@@H](CC(=O)O)C(=O)N2CCC[C@H]2C(=O)N[C@@H](CN)C(=O)N[C@@H](CC(=O)O)C(=O)N2C[C@H](O)C[C@H]2C(=O)N[C@@H](Cc2c[nH]c3ccccc23)C(=O)N[C@@H](CCN)C(=O)N[C@@H](Cc2csc3ccccc23)C(=O)N1C [Example 1222] ({CH2CO}-YPDP[Dap]D[Hyp]W[Dab][Bta][NMeNle][NMeNle][Dap]CG-NH2; thioether N-14): < 7.13
CCCC[C@H]1C(=O)N(C)[C@@H](CCCC)C(=O)N[C@@H](CCCNC(=N)N)C(=O)N[C@H](C(=O)NCC(N)=O)CSCC(=O)N[C@@H](Cc2ccc(O)cc2)C(=O)N2CCCC[C@H]2C(=O)N[C@@H](CC(N)=O)C(=O)N2CCC[C@H]2C(=O)N[C@@H](CN)C(=O)N[C@@H](CC(C)C)C(=O)N2C[C@H](O)C[C@H]2C(=O)N[C@@H](Cc2c[nH]c3ccccc23)C(=O)N[C@@H](CO)C(=O)N[C@@H](Cc2c[nH]c3ccccc23)C(=O)N1C [Example 1236] ({CH2CO}-Y[Pip]NP[Dap]L[Hyp]WSW[NMeNle][NMeNle]RCG-NH2; thioether N-14): 8.33 to 9.80

Could you now consider this next compound?
Kindly note the recorded pIC50 for CCCC[C@H]1C(=O)N(C)[C@@H](CCCC)C(=O)N[C@@H](CCCNC(=N)N)C(=O)N[C@H](C(=O)NCC(N)=O)CSCC(=O)N[C@@H](Cc2ccccc2)C(=O)N(C)[C@@H](C)C(=O)N[C@@H](CC(N)=O)C(=O)N2CCC[C@H]2C(=O)N[C@@H](CCCCN)C(=O)N[C@@H](CC(C)C)C(=O)N(C)CC(=O)N[C@@H](Cc2c[nH]c3ccccc23)C(=O)N[C@@H](CO)C(=O)N[C@@H](Cc2c[nH]c3ccccc23)C(=O)N1C [Example 1077] ({CH2CO}-F[NMeA]NPKL[Sar]WSW[NMeNle][NMeNle]RCG-NH2; thioether N-14) , which is < 7.13
